# targetUnderTest: RSV F protein of subtype A strain A2, on virus (respiratory syncytial virus subtype A …, UniProt P03420 26-574)
# procedureText: cell-based or functional assay
endpointLabel: Neut IC50 (ug/ml) subtype A

INSERT INTO measurements (binder, valueobserved) VALUES
  ('ADI-15659 (antibody, V domains shown, IgG; also called Antibody Number 223) VH: QVQLVQSGAEVKKPGSSVKVSCKASGGTFSTYGISWVRQAPGQGLEWMGRVIPMFGTATYAQKFQDRVTITADKATSTAYMELNSLRSDDTAVYYCARCPPFEGVRPPWFDPWGQGTLVTVSS VL: SYELTQPPSVSVAPGRTAKITCGGYNIGNKRVHWYRQRPGQAPVLIVYDNADRPSGIPERFSGSNSGNTATLTISNVAAGDEADYHCQVWETSSDHPVFGGGTKLTVL', '> 10 µg/mL'),
  ('ADI-15563 (antibody, V domains shown, IgG) VH: EVQLVESGGGLVQPGRSLRLSCAASGFTFDDYAMHWVRQAPGKGLEWVSGISWNSGIVKYADSVKGRFTISRDNAKNSLYLQMNSLRTEDTALYYCVKDGYTSSWHSDYHYGLDVWGQGTTVTVSS VL: DIVMTQSPATLSLSPGDRATLSCRASQNVISNLAWYQQKPGQAPRLLIYTVSTRATGIPARFSGSGSGTDFTLTISSLQSEDFAVYYCQQYNNWPLTFGGGTKVEIK', '0.014 µg/mL');
